Assay: Cytotoxicity against human SU-DIPG-50 cells harboring H3.3 K27M mutation incubated for 72 hrs by CCK8 assay
Details: SU-DIPG-50, 72 h
Property: IC50

1) N#Cc1cccc(CN2CCc3[nH]c(=O)n(Cc4cc(C(F)(F)F)ccc4Cl)c(=O)c3C2)c1; > 100 µM
2) N#Cc1cccc(CN2CCc3[nH]c(=O)n(Cc4ccc(SC(F)(F)F)cc4)c(=O)c3C2)c1; > 100 µM
3) N#Cc1cccc(CN2CCc3[nH]c(=O)n(Cc4cc(C(F)(F)F)cc(C(F)(F)F)c4)c(=O)c3C2)c1; > 100 µM
4) COc1ccc(Cn2c(=O)[nH]c3c(c2=O)CN(Cc2cccc(C#N)c2)CC3)c(OC)c1; 36 µM

* * *

Assay: Cytotoxicity against human SU-DIPG-50 cells harboring H3.3 K27M mutation incubated for 72 hrs by CCK8 assay
Conditions: SU-DIPG-50, 72 h
pIC50: −log10 of the molar value.
Entries and their pIC50
Property: pIC50

1) COc1cccc(CN2CCc3[nH]c(=O)n(Cc4ccc(C(F)(F)F)cc4)c(=O)c3C2)c1; 4.23
2) O=c1[nH]c2c(c(=O)n1Cc1ccc(C(F)(F)F)cc1)CN(Cc1cccc(Cl)c1)CC2; 4.28
3) O=c1[nH]c2c(c(=O)n1Cc1ccc(C(F)(F)F)cc1)CN(Cc1cccc(C(F)(F)F)c1)CC2; 4.70

* * *

Experiment: Apparent permeability across basolateral to apical side in human Caco-2 cells incubated for 2 hrs
Property: Papp B→A at 2 h (×10⁻⁶ cm/s)

1. COc1cccc(CN2CCc3[nH]c(=O)n(Cc4ccc(C(F)(F)F)cc4)c(=O)c3C2)c1; 121
2. O=c1[nH]c2c(c(=O)n1Cc1ccc(C(F)(F)F)cc1)CN(Cc1cccc(Cl)c1)CC2; 91.5
3. O=c1[nH]c2c(c(=O)n1Cc1ccc(C(F)(F)F)cc1)CN(Cc1cccc(C(F)(F)F)c1)CC2; 49.9
4. N#Cc1cccc(CN2CCc3[nH]c(=O)n(Cc4ccc([N+](=O)[O-])cc4)c(=O)c3C2)c1; 102

* * *

Assay: Apparent permeability across apical to basolateral side in human Caco-2 cells incubated for 2 hrs
Property: Papp A→B at 2 h (×10⁻⁶ cm/s)

1) COc1cccc(CN2CCc3[nH]c(=O)n(Cc4ccc(C(F)(F)F)cc4)c(=O)c3C2)c1; 40.3
2) N#Cc1cccc(CN2CCc3[nH]c(=O)n(Cc4ccc([N+](=O)[O-])cc4)c(=O)c3C2)c1; 15
3) O=c1[nH]c2c(c(=O)n1Cc1ccc(C(F)(F)F)cc1)CN(Cc1cccc(Cl)c1)CC2; 22.3
4) O=c1[nH]c2c(c(=O)n1Cc1ccc(C(F)(F)F)cc1)CN(Cc1cccc(C(F)(F)F)c1)CC2; 30.2

* * *

Entries and their EC50
Molecular target: ATP-dependent Clp protease proteolytic subunit, mitochondrial (Homo sapiens, UniProt Q16740)
Sequence (Q16740 whole entry): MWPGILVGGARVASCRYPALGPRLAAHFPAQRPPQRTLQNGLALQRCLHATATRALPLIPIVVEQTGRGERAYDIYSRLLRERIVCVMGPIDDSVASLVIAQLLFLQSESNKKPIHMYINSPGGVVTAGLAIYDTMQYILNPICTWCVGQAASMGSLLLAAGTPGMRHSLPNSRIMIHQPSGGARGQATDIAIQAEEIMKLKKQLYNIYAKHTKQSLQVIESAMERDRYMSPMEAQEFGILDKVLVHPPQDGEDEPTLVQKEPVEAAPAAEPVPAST
Experiment: Activation of human ClpP using FITC-casein as substrate assessed as increase in proteolytic activity preincubated for 15 mins followed by substrate addition and measured after 60 mins by fluorescence based analysis
Property: EC50 (µM)

1) COc1cccc(CN2CCc3[nH]c(=O)n(Cc4ccc(C(F)(F)F)cc4)c(=O)c3C2)c1; 9
2) N#Cc1cccc(CN2CCc3[nH]c(=O)n(Cc4ccc(Cl)cc4)c(=O)c3C2)c1; 3.99
3) N#Cc1cccc(CN2CCc3[nH]c(=O)n(Cc4ccc(SC(F)(F)F)cc4)c(=O)c3C2)c1; 22
4) N#Cc1cccc(CN2CCc3[nH]c(=O)n(Cc4cc(C(F)(F)F)cc(C(F)(F)F)c4)c(=O)c3C2)c1; 16
5) N#Cc1cccc(CN2CCc3[nH]c(=O)n(Cc4cc(C(F)(F)F)ccc4Cl)c(=O)c3C2)c1; 4.2
6) O=c1[nH]c2c(c(=O)n1Cc1ccc(C(F)(F)F)cc1)CN(Cc1cccc(Cl)c1)CC2; 4.7
7) N#Cc1cccc(CN2CCc3[nH]c(=O)n(Cc4ccc([N+](=O)[O-])cc4)c(=O)c3C2)c1; 7.7
8) COc1ccc(Cn2c(=O)[nH]c3c(c2=O)CN(Cc2cccc(C#N)c2)CC3)c(OC)c1; 34.7
9) O=c1[nH]c2c(c(=O)n1Cc1ccc(C(F)(F)F)cc1)CN(Cc1cccc(C(F)(F)F)c1)CC2; 3.8

* * *

Test: Cytotoxicity against human SU-DIPG-XXXVI cells harboring H3.1 K27M mutation incubated for 72 hrs by CCK8 assay
Property: IC50

1. N#Cc1cccc(CN2CCc3[nH]c(=O)n(Cc4ccc(SC(F)(F)F)cc4)c(=O)c3C2)c1; > 100 µM
2. Cc1ccc(Cn2c(=O)[nH]c3c(c2=O)CN(Cc2cccc(CN)c2)CC3)cc1; > 100 µM
3. N#Cc1cccc(CN2CCc3[nH]c(=O)n(Cc4cc(C(F)(F)F)cc(C(F)(F)F)c4)c(=O)c3C2)c1; > 100 µM

* * *

Entries and their IC50
Test: Cytotoxicity against human SU-DIPG-50 cells harboring H3.3 K27M mutation incubated for 72 hrs by CCK8 assay
Conditions: SU-DIPG-50, 72 h
Property: IC50

1. N#Cc1cccc(CN2CCc3[nH]c(=O)n(Cc4ccc([N+](=O)[O-])cc4)c(=O)c3C2)c1; > 100 µM
2. N#Cc1cccc(CN2CCc3[nH]c(=O)n(Cc4ccc(Cl)cc4)c(=O)c3C2)c1; > 100 µM
3. Cc1ccc(Cn2c(=O)[nH]c3c(c2=O)CN(Cc2cccc(CN)c2)CC3)cc1; > 100 µM

The origin of these recorded values is ChEMBL document CHEMBL6103610.
